Recorded koff values for a group of binders are listed next.
Target: T1, recombinant extracellular domain (ECD) of human TF, amino acid 1-219 of the mature chain, C-terminal His6-tag (human, UniProt P13726 33-251)
T1 construct: expressed in a mammalian system; used for ELISA and Biacore; biotinylated by NHS-ester for the Fab ELISA; also called His6-TF-ECD1-219; HumanTF1-219
Assay: Biacore
Note: unit s⁻¹ is implicit; provide only the numeric part.

The cases that follow already have their koff on record.
[
  {
    "BINDER": "M1602 (antibody, V domains shown, complete MAb; FR4 is its own entry; also called H106/L3) VH: EVQLVQSGAEVKKPGESLRISCKGSGYTFDAHWIEWVRQMPGKGLEWMGDILPGSGFTDYSPSFQGHVTISADKSISTAYLQWSSLKASDTAMYYCARSGYYGNSGFAYWGQGTLVTVSS VL: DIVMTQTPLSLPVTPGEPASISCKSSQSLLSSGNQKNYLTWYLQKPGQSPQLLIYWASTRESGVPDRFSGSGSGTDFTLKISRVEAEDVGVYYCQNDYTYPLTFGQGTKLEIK",
    "TEST VALUE": "8.2e-05"
  },
  {
    "BINDER": "M9 (antibody, V domains shown, complete MAb; FR4 is its own entry; also called H15/L2) VH: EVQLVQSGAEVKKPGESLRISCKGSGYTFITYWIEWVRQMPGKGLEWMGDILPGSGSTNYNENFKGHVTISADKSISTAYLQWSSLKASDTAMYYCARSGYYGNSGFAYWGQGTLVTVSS VL: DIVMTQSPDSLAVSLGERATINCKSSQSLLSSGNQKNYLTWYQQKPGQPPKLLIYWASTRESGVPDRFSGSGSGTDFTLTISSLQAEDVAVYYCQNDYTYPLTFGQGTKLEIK",
    "TEST VALUE": "5.9e-05"
  }
]

As a next step, examine the binder that follows.
Recorded koff for M16 (antibody, V domains shown, complete MAb; FR4 is its own entry; also called H16/L2) VH: QVQLVQSGAEVKKPGASVKVSCKASGYTFITYWIEWVRQAPGQGLEWMGDILPGSGSTNYNENFKGRVTMTRDTSTSTVYMELSSLRSEDTAVYYCARSGYYGNSGFAYWGQGTLVTVSS VL: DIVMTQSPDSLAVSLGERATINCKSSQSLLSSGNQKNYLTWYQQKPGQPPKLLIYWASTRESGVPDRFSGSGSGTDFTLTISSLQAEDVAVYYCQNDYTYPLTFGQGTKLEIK , please?
6.7e-05

These entries and their values trace back to patent US20120237528A1.
